# System: SW-620
# ASSAY REMARKS: NCI tumour cell line growth inhibition, 48 h
Activity calls are given as the source filed them. Cut-off read from the data, not from the text of the source: active = GI50 up to about 1.1 µM and inactive = higher.
Returns: one label drawn from active, inactive

Example cases with answers are listed next.
COMPOUND: CC1CC[C@]2(C(=O)O)CCC3(C)C(=CCC4[C@@]5(C)CC[C@H](OS(=O)(=O)c6ccccc6)C(C)(C)C5CC[C@]43C)[C@@H]2[C@H]1C (some centres undefined)
GROUP: inactive
//
COMPOUND: COC(=O)C(Cc1ccccc1)NC(=O)C(CCC(=O)OCc1ccccc1)NC(=O)OC(C)(C)C (centres undefined)
GROUP: inactive
//
COMPOUND: CC(=O)OC1C2CCC3CC2C2(SCCS2)C31 (centres undefined)
GROUP: inactive
//
COMPOUND: COc1cccc2cc(C(=O)Nc3ccccn3)c(=N)oc12
GROUP: inactive
//
COMPOUND: Clc1cc2nc(C3CCCCO3)[nH]c2cc1Cl (centres undefined)
GROUP: inactive
//
COMPOUND: CCN(CC)C(=S)SS(=O)(=O)c1ccc(Cl)cc1
GROUP: inactive
//
COMPOUND: O=C(O)CSc1ccn(Cc2ccccc2)c1
GROUP: inactive
//
COMPOUND: CN(C)C(=S)/N=c1\ss/c(=N\c2ccccc2)n1-c1ccccc1
GROUP: inactive
//
COMPOUND: CCOC(=O)/C(C#N)=C1\N[C@H](C(=O)OCC)CO1
GROUP: inactive
//
COMPOUND: CCOC(=O)C1(CC(=O)O)CCCC1=O (centres undefined)
GROUP: inactive

In: I would be grateful if you could indicate the recorded call for O=C(c1ccccc1)c1cc[n+](C2=C([N-]S(=O)(=O)c3ccccc3)C(=O)c3ccccc3C2=O)cc1 .
Out: inactive

In: Tell me the assay call for Nc1ccc2c3[nH]c4cc(N)ccc4cc-3nc2c1 please.
Out: active

In: # outcome recorded in this test, key = N#CCCC1(CCC#N)CCc2ccccc2C1=O
Out: inactive

In: Answer briefly: the call reported for CC(C)N(O)C(=N)c1ccccc1 in this assay.
Out: inactive

In: Test call, this compound: Cc1c(C(=O)/C=C/c2ccc(Cl)cc2)[n+]([O-])c2ccccc2[n+]1[O-]
Out: inactive

###

# System: SK-MEL-28
# ASSAY REMARKS: NCI tumour cell line growth inhibition, 48 h
Activity calls are given as the source filed them. Cut-off read from the data, not from the text of the source: active = GI50 up to about 1.1 µM and inactive = higher.
READOUT TYPE: GI50

Example compounds with recorded GI50:
COMPOUND: COc1ccc(-n2cnnc2-c2nsc3ccccc23)cc1
TARGET SYSTEM: SK-MEL-28
READOUT TYPE: GI50
RESULT: 78.2 µM (inactive)
//
COMPOUND: CN(C)C(=S)/N=c1\ssc(=S)n1Cc1ccncc1
TARGET SYSTEM: SK-MEL-28
READOUT TYPE: GI50
RESULT: 35.1 µM (inactive)
//
COMPOUND: CCC(=O)Nc1cccc(/N=C/c2ccc(OC(=O)/C=C\c3ccccc3)cc2)c1
TARGET SYSTEM: SK-MEL-28
READOUT TYPE: GI50
RESULT: 61.4 µM (inactive)
//
COMPOUND: C[C@@]1(O)CC[C@]2(C)C3CCCC3[C@H]12 (stereo partly specified)
TARGET SYSTEM: SK-MEL-28
READOUT TYPE: GI50
RESULT: > 100 µM (inactive)
//
COMPOUND: COC(=O)C(Cc1ccccc1)NC(=O)C(CCC(=O)OCc1ccccc1)NC(=O)OC(C)(C)C (stereo unspecified)
TARGET SYSTEM: SK-MEL-28
READOUT TYPE: GI50
RESULT: > 100 µM (inactive)

In: Sample CC(=O)OCC1OC(n2cnc(C(N)=S)c2N)C(OC(C)=O)C1OC(C)=O (stereo unspecified) — what was its GI50?
Out: > 100 µM (inactive)

In: GI50 for CCOC(=O)C1(CC(=O)O)CCCC1=O (stereo unspecified) ?
Out: > 100 µM (inactive)

###

# Tested on: BT-549
# ASSAY REMARKS: NCI tumour cell line growth inhibition, 48 h
Activity calls are given as the source filed them. No stated cut-off is given here; in the data, active = GI50 up to about 1.1 µM and inactive = higher.
READOUT TYPE: GI50

Solved entries (count: 5):
COMPOUND: CC(C)C(=O)CC(Sc1ccc(N)cc1)c1ccccc1 (stereo unspecified)
TARGET SYSTEM: BT-549
GI50: 33.7 µM (inactive)

COMPOUND: O=C(c1ccccc1)c1cc[n+](C2=C([N-]S(=O)(=O)c3ccccc3)C(=O)c3ccccc3C2=O)cc1
TARGET SYSTEM: BT-549
GI50: 6.76 µM (inactive)

COMPOUND: Cc1ccsc1C(=S)Nc1ccc(Cl)c(C(=O)OC(C(C)C)C(C)C)c1
TARGET SYSTEM: BT-549
GI50: 3.38 µM (inactive)

COMPOUND: [N-]=[N+]=CC(=O)C1CCN(c2ccccc2)C1=O (stereo unspecified)
TARGET SYSTEM: BT-549
GI50: > 10 µM (inactive)

COMPOUND: COc1ccc(-c2nc(N)c(C#N)c3c2CCS(=O)(=O)c2ccc(C)cc2-3)cc1OC
TARGET SYSTEM: BT-549
GI50: 21.8 µM (inactive)

In: Which GI50 is listed for Cc1ccc(O)c(-c2cc(-c3cccc(Cl)c3)c(C#N)c(N)n2)c1 ?
Out: 36.3 µM (inactive)

###

# Tested on: CCRF-CEM
# ASSAY REMARKS: NCI tumour cell line growth inhibition, 48 h
Calls of active or inactive are those of the source. No stated cut-off is given here; in the data, active = GI50 up to about 1.1 µM and inactive = higher.
READOUT TYPE: GI50

Record excerpt, results attached:
COMPOUND: CC(=O)OCC1OC(OC2CC3C(C)(C)C(OC(C)=O)CC[C@]3(C)C3CCC45CC4(CC[C@H]5C(C)CC(O)[C@@H](O)C(C)(C)O)[C@]23C)C(O)C(O)C1O (stereo not given in full)
RESULT: 6.46 µM (inactive)

COMPOUND: O=C1CCCc2cc3c(cc21)CCC3C(=O)O (stereo not given)
RESULT: > 100 µM (inactive)

COMPOUND: CCC(=O)Nc1cccc(/N=C/c2ccc(OC(=O)/C=C\c3ccccc3)cc2)c1
RESULT: > 75 µM (inactive)

COMPOUND: CCOC(=O)c1cn(-c2ccc(Cl)cc2)c(=O)n2c1nc1ccccc12
RESULT: > 100 µM (inactive)

In: Query: GI50; subject: COc1cc(/C=C/c2ccc(OC)c(O)c2)cc(OC)c1
Out: 3.15 µM (inactive)

###

# Test system: RPMI-8226
# ASSAY REMARKS: NCI tumour cell line growth inhibition, 48 h
Active and inactive are the calls of the source. Cut-off read from the data, not from the text of the source: active = GI50 up to about 1.1 µM and inactive = higher.
READOUT TYPE: GI50

In: Would you mind telling me what GI50 value was observed for CCOC(=O)C(NC(=O)c1cccc(Cl)c1)(N1CCN(c2cc3c(cc2F)c(=O)c(C(=O)O)cn3C2CC2)CC1)C(F)(F)F (centres undefined) ?
Out: 3.94 µM (inactive)

In: // GI50 lookup, key: CC1CC(C#N)=C2NCCCCN2C1=O (centres undefined)
Out: > 100 µM (inactive)

In: // GI50 lookup, key: N#Cc1c2ccccc2c(Cc2ccc3c(c2)OCCOCCOCCOCCOCCO3)c2ccccc12
Out: 3.11 µM (inactive)

In: Would you mind telling me what GI50 value was observed for C[N+](C)(C)CC(=O)N/N=C/c1ccncc1 ?
Out: > 100 µM (inactive)

In: # lookup: GI50 of CC#CC(O)(C(=O)OC1CCC2CCC1N2C)C1CCCC1 (centres undefined)
Out: > 100 µM (inactive)

In: Entry under review: CCO/C([O-])=C(\C(=O)c1ccc([N+](=O)[O-])cc1)[n+]1c(C)n(C)c2ccccc21 . Reported GI50?
Out: > 100 µM (inactive)

In: Give its GI50 value. Item: O=C(Nc1nnc(S)[nH]1)C(=O)C(c1cnc2ccc([N+](=O)[O-])cc2n1)[N+](=O)[O-] (centres undefined)
Out: 89.7 µM (inactive)

In: Suppose we examine the molecule C[C@@]12CCC(=O)c3coc(c31)C(=O)c1cc3c(cc12)C(=O)C=CC3=O ; what GI50 value has been reported?
Out: 64.6 µM (inactive)

In: Requested field: GI50. Item: CC1(C)O[C@@H]2[C@@H]3OC(=O)C[C@@H]3[C@@H](COCc3ccccc3)[C@@H]2O1
Out: > 100 µM (inactive)

###

# System: OVCAR-8
# ASSAY REMARKS: NCI tumour cell line growth inhibition, 48 h
The source made the active and inactive calls. Cut-off read from the data, not from the text of the source: active = GI50 up to about 1.1 µM and inactive = higher.
Assign a class; possible classes are active, inactive

As a guide, the following entries are already answered.
MOLECULE: Cc1nc2cc(Cl)c(N)cc2[nH]1
TARGET SYSTEM: OVCAR-8
GROUP: inactive
--
MOLECULE: CC(C)(CN1CCCCC1)C(=O)/C=C/c1ccc(/C=C/C(=O)C(C)(C)CN2CCCCC2)cc1
TARGET SYSTEM: OVCAR-8
GROUP: active
--
MOLECULE: COc1ccccc1C12OC(=O)C1(C)Oc1ccccc1C2=O (configuration not stated)
TARGET SYSTEM: OVCAR-8
GROUP: inactive

In: Lab log entry: COC(c1ccc(C(C)(C)C)cc1)(c1ccc(C(C)(C)C)cc1)c1ccc(C(C)(C)C)cc1 — outcome as called in the assay?
Out: inactive

In: In this assay, the call recorded for CCSC1=N/C(=C\c2ccco2)C(=O)N1 was what?
Out: inactive

In: Field: outcome | Entry: N#Cc1c(O)c(/C=N/c2ncccn2)c(=O)n2c1[nH]c1ccccc12
Out: inactive
